protocol: Cytotoxicity assay in mammalian cells (MTT), macrophages, 48 h
Type: cell-based
studyConditions: mouse, pH 7.2; 50 % inhibition of macrophages growth, 48 h, MTT
endpointLabel: CC50 at 48 h (µM)
Please reply with the bare figure in µM and do not write the unit itself.

query: For the compound shown here, NNC(=O)c1noc(-c2ccccc2)c1CNc1ccc(Cl)cc1 [3 bb] , give the reported CC50 at 48 h.
result: 231

---

Tested on: epimastigote forms of Trypanosoma cruzi (Y strain)
protocol: Antiproliferative assay (XTT), epimastigote forms, 96 h
Type: cell-based
studyConditions: fibroblast vs epimastigote
Procedure: The antiproliferative activity was determined in promastigote forms of Leishmania amazonensis (WHOM/BR/75/JOSEFA strain) and epimastigote forms of Trypanosoma cruzi (Y strain). The promastigote forms of L. amazonensis were cultured in Warren medium (brain heart infusion, hemin, and folic acid; pH 7.4) supplemented with 10 % fetal bovine serum (FBS) at 25 °C. […] Cytotoxicity in mammalian cells was determined in fibroblast line (L929) and macrophages (J774 A1). […]
endpointLabel: SIT-F, selectivity index (Fibroblast CC50/T. cruzi IC50)
A bare number is all that is needed in reply.

Some compounds with recorded SIT-F, selectivity index (Fibroblast CC50/T. cruzi IC50):
1) O=C(N/N=C/c1ccc(-c2cccs2)s1)c1noc(-c2ccc(Cl)cc2)c1CNc1ccc(Cl)cc1; 9.21
2) COc1ccc(NCc2c(C(=O)N/N=C/c3ccccc3)noc2-c2ccccc2)cc1; 7.85

Now look at this entry.
query: For the compound shown here, COc1ccc(NCc2c(C(=O)N/N=C/c3ccccc3)noc2-c2ccc([N+](=O)[O-])cc2)cc1 , give the reported SIT-F, selectivity index (Fibroblast CC50/T. cruzi IC50).
result: 12.89

---

protocol: Cytotoxicity assay in mammalian cells (MTT), macrophages, 48 h
Type: cell-based
studyConditions: mouse, J774 A1 macrophages, pH 7.2; 50 % inhibition of macrophages growth, 48 h, MTT
Lab note: anything with CC50 at 48 h below 300 µM is marked MET; values at 300 µM or higher are marked NOT MET.

Worked examples, 5 molecules total:
1) O=C(N/N=C/c1ccc(-c2cccs2)s1)c1noc(-c2ccc([N+](=O)[O-])cc2)c1CNc1ccc(Cl)cc1 [6 ab]; MET
2) COc1ccc(NCc2c(C(=O)N/N=C/c3ccc(-c4cccs4)s3)noc2-c2ccc(F)cc2)cc1 [6 cc]; MET
3) COc1ccc(NCc2c(C(=O)N/N=C/c3ccccc3)noc2-c2ccc(Cl)cc2)cc1 [4 dc]; MET
4) O=C(N/N=C/c1ccccc1)c1noc(-c2ccc(F)cc2)c1CNc1ccccc1 [4 ca]; NOT MET
5) COc1ccc(NCc2c(C(=O)N/N=C/c3ccccn3)noc2-c2ccccc2)cc1 [5 bc]; MET

query: Determine if CCOC(=O)c1noc(-c2ccc(Cl)cc2)c1CNc1ccc(Cl)cc1 [2 db] shows CC50 at 48 h strictly lower than 300 µM.
result: MET

query: Determine if CCOC(=O)c1noc(-c2ccc(Cl)cc2)c1CNc1ccccc1 [2 da] shows CC50 at 48 h strictly lower than 300 µM.
result: MET

query: Determine if NNC(=O)c1noc(-c2ccc([N+](=O)[O-])cc2)c1CNc1ccc(Cl)cc1 [3 ab] shows CC50 at 48 h strictly lower than 300 µM.
result: MET

query: Determine if COc1ccc(NCc2c(C(=O)NN)noc2-c2ccc(F)cc2)cc1 [3 cc] shows CC50 at 48 h strictly lower than 300 µM.
result: MET

query: Determine if O=C(N/N=C/c1ccccc1)c1noc(-c2ccc(Cl)cc2)c1CNc1ccccc1 [4 da] shows CC50 at 48 h strictly lower than 300 µM.
result: MET

query: Determine if COc1ccc(NCc2c(C(=O)N/N=C/c3ccccc3)noc2-c2ccccc2)cc1 [4 bc] shows CC50 at 48 h strictly lower than 300 µM.
result: MET

query: Determine if COc1ccc(NCc2c(C(=O)N/N=C/c3ccccc3)noc2-c2ccc([N+](=O)[O-])cc2)cc1 [4 ac] shows CC50 at 48 h strictly lower than 300 µM.
result: MET

query: Determine if NNC(=O)c1noc(-c2ccc(F)cc2)c1CNc1ccc(Cl)cc1 [3 cb] shows CC50 at 48 h strictly lower than 300 µM.
result: NOT MET

query: Determine if O=C(N/N=C/c1ccccn1)c1noc(-c2ccc([N+](=O)[O-])cc2)c1CNc1ccccc1 [5 aa] shows CC50 at 48 h strictly lower than 300 µM.
result: NOT MET

query: Determine if O=C(N/N=C/c1ccccn1)c1noc(-c2ccc([N+](=O)[O-])cc2)c1CNc1ccc(Cl)cc1 [5 ab] shows CC50 at 48 h strictly lower than 300 µM.
result: MET

query: Determine if O=C(N/N=C/c1ccccn1)c1noc(-c2ccc(F)cc2)c1CNc1ccccc1 [5 ca] shows CC50 at 48 h strictly lower than 300 µM.
result: NOT MET

query: Determine if O=C(N/N=C/c1ccc(-c2cccs2)s1)c1noc(-c2ccc(Cl)cc2)c1CNc1ccccc1 [6 da] shows CC50 at 48 h strictly lower than 300 µM.
result: NOT MET

query: Determine if O=C(N/N=C/c1ccccn1)c1noc(-c2ccc(F)cc2)c1CNc1ccc(Cl)cc1 [5 cb] shows CC50 at 48 h strictly lower than 300 µM.
result: MET

query: Determine if O=C(N/N=C/c1ccccn1)c1noc(-c2ccc(Cl)cc2)c1CNc1ccccc1 [5 da] shows CC50 at 48 h strictly lower than 300 µM.
result: MET

query: Determine if O=C(N/N=C/c1ccccc1)c1noc(-c2ccc(Cl)cc2)c1CNc1ccc(Cl)cc1 [4 db] shows CC50 at 48 h strictly lower than 300 µM.
result: NOT MET

query: Determine if O=C(N/N=C/c1ccc(-c2cccs2)s1)c1noc(-c2ccc(F)cc2)c1CNc1ccc(Cl)cc1 [6 cb] shows CC50 at 48 h strictly lower than 300 µM.
result: MET

query: Determine if O=C(N/N=C/c1ccccc1)c1noc(-c2ccccc2)c1CNc1ccccc1 [4 ba] shows CC50 at 48 h strictly lower than 300 µM.
result: NOT MET

query: Determine if COc1ccc(NCc2c(C(=O)N/N=C/c3ccccn3)noc2-c2ccc([N+](=O)[O-])cc2)cc1 [5 ac] shows CC50 at 48 h strictly lower than 300 µM.
result: NOT MET

---

Tested on: promastigote forms of Leishmania amazonensis (WHOM/BR/75/JOSEFA strain)
protocol: Antiproliferative assay (XTT), promastigote forms, 72 h
Assay type: cell-based
studyConditions: fibroblast vs promastigote
Label YES when SIL-F, selectivity index (Fibroblast CC50/L. amazonensis IC50) is at or above 6; otherwise label NO.

query: Check if SIL-F, selectivity index (Fibroblast CC50/L. amazonensis IC50) >= 6 (inclusive). Item: O=C(N/N=C/c1ccccc1)c1noc(-c2ccc(Cl)cc2)c1CNc1ccccc1 [4 da]
result: NO

query: Check if SIL-F, selectivity index (Fibroblast CC50/L. amazonensis IC50) >= 6 (inclusive). Item: COc1ccc(NCc2c(C(=O)N/N=C/c3ccc(-c4cccs4)s3)noc2-c2ccc([N+](=O)[O-])cc2)cc1 [6 ac]
result: NO

query: Check if SIL-F, selectivity index (Fibroblast CC50/L. amazonensis IC50) >= 6 (inclusive). Item: O=C(N/N=C/c1ccccc1)c1noc(-c2ccccc2)c1CNc1ccccc1 [4 ba]
result: NO

query: Check if SIL-F, selectivity index (Fibroblast CC50/L. amazonensis IC50) >= 6 (inclusive). Item: COc1ccc(NCc2c(C(=O)N/N=C/c3ccccc3)noc2-c2ccc([N+](=O)[O-])cc2)cc1 [4 ac]
result: YES

query: Check if SIL-F, selectivity index (Fibroblast CC50/L. amazonensis IC50) >= 6 (inclusive). Item: O=C(N/N=C/c1ccccn1)c1noc(-c2ccc(F)cc2)c1CNc1ccccc1 [5 ca]
result: NO

query: Check if SIL-F, selectivity index (Fibroblast CC50/L. amazonensis IC50) >= 6 (inclusive). Item: O=C(N/N=C/c1ccccn1)c1noc(-c2ccccc2)c1CNc1ccccc1 [5 ba]
result: YES

query: Check if SIL-F, selectivity index (Fibroblast CC50/L. amazonensis IC50) >= 6 (inclusive). Item: NNC(=O)c1noc(-c2ccc(F)cc2)c1CNc1ccc(Cl)cc1 [3 cb]
result: NO

query: Check if SIL-F, selectivity index (Fibroblast CC50/L. amazonensis IC50) >= 6 (inclusive). Item: O=C(N/N=C/c1ccc(-c2cccs2)s1)c1noc(-c2ccc(F)cc2)c1CNc1ccccc1 [6 ca]
result: YES

query: Check if SIL-F, selectivity index (Fibroblast CC50/L. amazonensis IC50) >= 6 (inclusive). Item: COc1ccc(NCc2c(C(=O)NN)noc2-c2ccc(Cl)cc2)cc1 [3 dc]
result: NO

query: Check if SIL-F, selectivity index (Fibroblast CC50/L. amazonensis IC50) >= 6 (inclusive). Item: CCOC(=O)c1noc(-c2ccc(Cl)cc2)c1CNc1ccc(Cl)cc1 [2 db]
result: NO

query: Check if SIL-F, selectivity index (Fibroblast CC50/L. amazonensis IC50) >= 6 (inclusive). Item: COc1ccc(NCc2c(C(=O)NN)noc2-c2ccccc2)cc1 [3 bc]
result: YES

query: Check if SIL-F, selectivity index (Fibroblast CC50/L. amazonensis IC50) >= 6 (inclusive). Item: NNC(=O)c1noc(-c2ccc(Cl)cc2)c1CNc1ccccc1 [3 da]
result: YES

query: Check if SIL-F, selectivity index (Fibroblast CC50/L. amazonensis IC50) >= 6 (inclusive). Item: O=C(N/N=C/c1ccccn1)c1noc(-c2ccc(Cl)cc2)c1CNc1ccc(Cl)cc1 [5 db]
result: NO

query: Check if SIL-F, selectivity index (Fibroblast CC50/L. amazonensis IC50) >= 6 (inclusive). Item: NNC(=O)c1noc(-c2ccc([N+](=O)[O-])cc2)c1CNc1ccc(Cl)cc1 [3 ab]
result: YES

query: Check if SIL-F, selectivity index (Fibroblast CC50/L. amazonensis IC50) >= 6 (inclusive). Item: COc1ccc(NCc2c(C(=O)N/N=C/c3ccc(-c4cccs4)s3)noc2-c2ccccc2)cc1 [6 bc]
result: YES
